Entry source: patent US11021435B2

Entries and their measured Ki follow.
molecular target: 5-HT2B (Homo sapiens); assay: Binding affinity, HEK293 cells transiently over-expressing human 5-HT2B; design: expressed in transfected cells; host or cells: HEK293, transient; details: mean (SEM)
Sequence (P41595 whole entry): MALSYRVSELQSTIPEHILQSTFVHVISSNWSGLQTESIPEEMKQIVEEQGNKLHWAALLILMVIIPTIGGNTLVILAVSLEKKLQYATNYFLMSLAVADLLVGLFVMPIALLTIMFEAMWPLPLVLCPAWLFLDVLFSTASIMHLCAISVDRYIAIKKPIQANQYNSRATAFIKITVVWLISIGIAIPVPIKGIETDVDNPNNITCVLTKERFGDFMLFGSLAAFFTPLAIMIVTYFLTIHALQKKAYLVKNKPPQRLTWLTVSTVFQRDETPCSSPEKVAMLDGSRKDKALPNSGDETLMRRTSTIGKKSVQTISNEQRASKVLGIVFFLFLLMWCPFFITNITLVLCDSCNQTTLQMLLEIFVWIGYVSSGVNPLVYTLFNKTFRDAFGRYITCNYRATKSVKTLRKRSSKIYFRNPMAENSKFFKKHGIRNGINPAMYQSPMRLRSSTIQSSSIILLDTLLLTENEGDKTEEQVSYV

| compound | Ki |
| --- | --- |
| CN(C)C1CCc2c(cccc2-c2ccccc2F)C1 (single isomer, unassigned; (+)) [(+)-5-FPT] | 60 nM |
| CN(C)C1CCc2c(cccc2-c2ccccc2F)C1 (single isomer, unassigned; (-)) [(−)-5-FPT] | 684 nM |

###

pKi: −log10 of the molar value.
The molecules below have reported pKi for histamine H1 receptor (Homo sapiens).

| molecule | pKi |
| --- | --- |
| CN(C)C1CCc2c(cccc2-c2ccccc2F)C1 (single isomer, unassigned; (+)) [(+)-5-FPT] | < 6.00 |
| CN(C)C1CCc2c(cccc2-c2ccccc2F)C1 (single isomer, unassigned; (-)) [(−)-5-FPT] | < 6.00 |
